protocolText: Ocular toxicity was assessed after oral dosing at 40 mg/Kg b.i.d. for 4 days in male Wistar rats; No
testParameters: rat, in vivo, 96 h

| chemicalSmiles | Eye toxicity |
| --- | --- |
| Cc1nsc(-c2ccc(N3CCN(c4cccc(C(F)(F)F)c4)CC3)cc2)n1 | No toxicity |
| CN(C)c1nsc(-c2ccc(N3CCN(c4cccc(C(F)(F)F)c4)CC3)nn2)n1 | No toxicity |
| CNc1nsc(-c2ccc(N3CCN(c4cccc(C(F)(F)F)c4)CC3)nn2)n1 | No toxicity |
| CCc1nsc(-c2ccc(N3CCN(c4cccc(C(F)(F)F)c4)CC3)nn2)n1 | No toxicity |
| Cc1nsc(-c2ccc(N3CCN(c4cccc(C(F)(F)F)c4)CC3)nc2)n1 | No toxicity |
| FC(F)(F)c1cccc(NC2CCN(c3ccc(-c4ncns4)nn3)CC2)c1 | No toxicity |
| CN(C)c1nsc(-c2ccc(N3CCN(c4cc(C(F)(F)F)cc(C(F)(F)F)c4)CC3)nn2)n1 | No toxicity |
| FC(F)(F)c1cccc(N2CCN(c3ccc(-c4ncns4)nn3)CC2)c1 | No toxicity |
| FC(F)(F)c1cccc(N2CCN(C3CCN(c4ccc(-c5ncns5)nn4)CC3)CC2)c1 | No toxicity |
| Nc1nsc(-c2ccc(N3CCN(c4cccc(C(F)(F)F)c4)CC3)nn2)n1 | No toxicity |
| FC(F)(F)c1cc(N2CCN(c3ccc(-c4ncns4)nn3)CC2)cc(C(F)(F)F)c1 | No toxicity |
| Cc1nsc(-c2nccc(N3CCN(c4cccc(C(F)(F)F)c4)CC3)n2)n1 | No toxicity |

###

protocolText: Ocular toxicity was assessed after oral dosing at 40 mg/Kg b.i.d. for 4 days in male Wistar rats; Yes
testParameters: rat, in vivo, 96 h

| chemicalSmiles | Eye toxicity |
| --- | --- |
| Cc1nsc(-c2ccc(N3CCN(c4cc(Cl)cc(Cl)c4)CC3)nn2)n1 | Yes |
| Cc1nsc(-c2ccc(N3CCN(c4cccc([N+](=O)[O-])c4)CC3)nn2)n1 | Yes |
| Cc1nsc(-c2ccc(N3CCN(c4cccc(Cl)c4)CC3)nn2)n1 | Yes |
| Cc1nsc(-c2ccc(N3CCN(c4ccccc4C(F)(F)F)CC3)nn2)n1 | Yes |
| Cc1nsc(-c2ccc(N3CCN(c4cc(C(F)(F)F)cc(C(F)(F)F)c4)CC3)nn2)n1 | Yes |

Reference source for all entries: ChEMBL document CHEMBL1135986
